These entries and their values trace back to patent US20240124434A1.

Provide the recorded pIC50 for the entries that follow.
# SYSTEM NAME: UniProtKB P33261
# Sequence (P33261 whole entry): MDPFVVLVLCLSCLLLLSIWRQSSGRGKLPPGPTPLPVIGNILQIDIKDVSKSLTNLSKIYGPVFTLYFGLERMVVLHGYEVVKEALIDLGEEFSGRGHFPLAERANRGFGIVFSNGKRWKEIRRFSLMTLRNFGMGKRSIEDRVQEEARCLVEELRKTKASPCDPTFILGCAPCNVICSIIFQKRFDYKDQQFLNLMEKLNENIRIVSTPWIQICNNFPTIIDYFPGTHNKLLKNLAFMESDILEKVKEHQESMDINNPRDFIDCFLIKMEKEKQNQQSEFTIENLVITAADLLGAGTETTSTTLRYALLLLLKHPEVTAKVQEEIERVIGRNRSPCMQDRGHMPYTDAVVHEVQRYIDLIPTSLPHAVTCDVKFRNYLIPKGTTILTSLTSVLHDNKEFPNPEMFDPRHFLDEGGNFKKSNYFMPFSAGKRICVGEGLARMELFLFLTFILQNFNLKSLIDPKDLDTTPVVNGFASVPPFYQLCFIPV
# EXPERIMENTAL DETAILS: CYP inhibition in human liver microsomes
# MEASUREMENT SETUP: read-out: CYP-2C19; human liver microsomes; probe substrate mephenytoin
Numbers only, as −log10 of the molar value.

Please review the following examples before continuing.
O=C(Nc1cnn(Cc2ccc(C(F)(F)F)cc2C(F)(F)F)c1)c1cc(-c2ccccn2)on1 :: 5.01
C[C@H](c1ccc(C(F)(F)F)cc1C(F)(F)F)n1cc(NC(=O)c2cc(-c3cnccn3)on2)cn1 :: 4.79
Cc1nn([C@H](C)c2ccc(C(F)(F)F)cc2C(F)(F)F)cc1NC(=O)c1cc(-c2ccccn2)on1 :: 5.06
CC(c1ccc(C(F)(F)F)cc1C(F)(F)F)n1cc(NC(=O)c2cnc(-c3ccccn3)s2)cn1 (stereo not drawn) :: 5.28

Go through the items and report each one's pIC50.
1. C[C@H](c1ccc(C(F)(F)F)cc1C(F)(F)F)n1cc(NC(=O)c2cn(-c3ccccn3)nn2)cn1
2. C[C@H](c1ccc(C(F)(F)F)cc1C(F)(F)F)n1cc(NC(=O)c2cc(-c3ccccn3)no2)cn1

## Result
[5.54, 5.44]

====

Provide the recorded solubility kinetic at 1 h for the entries that follow.
# EXPERIMENTAL DETAILS: Kinetic solubility (nephelometry)
# Type: physicochemical
# MEASUREMENT SETUP: aqueous buffer, kinetic from dmso stock; PBS pH 7.4, 1% DMSO, 1 hour at 37° C., light scattering at 625 nm
Numbers only, in µM.

Please review the following examples before continuing.
C[C@H](c1ccc(C(F)(F)F)cc1C(F)(F)F)n1cc(NC(=O)c2nnc(-c3cnccn3)s2)cn1 :: 28.1
CC(c1ccc(C(F)(F)F)cc1C(F)(F)F)n1cc(NC(=O)c2cc(-c3cccs3)on2)cn1 (stereo not shown) :: 8.9
O=C(Nc1cnn(Cc2ccc(C(F)(F)F)cc2C(F)(F)F)c1)c1cc(-c2cccs2)on1 :: 35.2
C[C@H](c1ccc(C(F)(F)F)cc1C(F)(F)F)n1cc(NC(=O)c2cc(-c3ncccn3)on2)cn1 :: 2.34
C[C@H](c1ccc(C(F)(F)F)cc1C(F)(F)F)n1cc(NC(=O)c2cnc(-c3ccccn3)s2)cn1 :: 2.34

Go through the items and report each one's solubility kinetic at 1 h.
1. CN(C(=O)c1cc(-c2ccccn2)on1)c1cnn(Cc2ccc(C(F)(F)F)cc2C(F)(F)F)c1
2. C[C@H](c1ccc(F)cc1C(F)(F)F)n1cc(NC(=O)c2cc(-c3ccccn3)on2)cn1

## Result
[9.37, 4.68]

====

# EXPERIMENTAL DETAILS: In vitro microsomal stability, mouse liver microsomes
# Format: in vitro ADME
# MEASUREMENT SETUP: pH 7.4; intrinsic clearance; mouse liver microsomes; read-out: Clint @ mLM
Provide the recorded microsomal CLint at 1 μM for the entries that follow.
Please answer using the number first and the unit second.

Please review the following examples before continuing.
CC(c1ccc(C(F)(F)F)cc1C(F)(F)F)n1cc(NC(=O)c2cc(-c3ccccn3)on2)cn1 (single isomer, unassigned) [“Enantiomer A” of Example S5] :: 39.7 µL/min/mg
O=C(Nc1cnn(Cc2ccc(C(F)(F)F)cc2C(F)(F)F)c1)c1cc(-c2ncccn2)on1 [Compound 129] :: 22 µL/min/mg
CCC(c1ccc(C(F)(F)F)cc1C(F)(F)F)n1cc(NC(=O)c2cc(-c3ccccn3)on2)cn1 (stereo not shown) [Compound 1] :: 39.5 µL/min/mg

// moving on: another record for microsomal CLint at 1 μM
## Task Hello, please tell me recorded microsomal CLint at 1 μM for this one: CC(c1ccc(C(F)(F)F)cc1C(F)(F)F)n1cc(NC(=O)c2cc(-c3ccco3)on2)cn1 (single isomer, unassigned) [“Enantiomer A” of Example S6]
## Result 232 µL/min/mg
